Value source: the NIST ThermoML archive (doi:10.1021/je050402s)

assay-explanation: xn = mol fraction of the nth substance listed
condition-description: 318.15 K; 100.5 kPa; Liquid; x1 = 0.3
endpoint-name: mass density (kg/m3)

COC(=O)c1ccccc1 [methyl benzoate] + CCO ... 912.06
CC(=O)OCc1ccccc1 [benzyl ethanoate] + CCO ... 904.56
CCOC(=O)CC(C)C [ethyl 3-methylbutanoate] + CCO ... 804.15
CCOC(=O)c1ccccc1O [ethyl 2-hydroxybenzoate] + CCO ... 945.25
CCC(=O)OCc1ccccc1 [benzyl propanoate] + CCO ... 899.34
CCOC(=O)CC(C)=O [ethyl 3-oxobutanoate] + CCO ... 880.6

* * *

assay-explanation: xn = mol fraction of the nth substance listed
condition-description: 318.15 K; 100.5 kPa; Liquid; x1 = 0.5
endpoint-name: mass density (kg/m3)

CCOC(=O)CC(C)=O [ethyl 3-oxobutanoate] + CCO ... 927.99
CCOC(=O)CC(C)C [ethyl 3-methylbutanoate] + CCO ... 818.12
COC(=O)c1ccccc1 [methyl benzoate] + CCO ... 971.68
CCC(=O)OCc1ccccc1 [benzyl propanoate] + CCO ... 945.28
CC(=O)OCc1ccccc1 [benzyl ethanoate] + CCO ... 956.27
CCOC(=O)c1ccccc1O [ethyl 2-hydroxybenzoate] + CCO ... 1010.88

* * *

assay-explanation: xn = mol fraction of the nth substance listed
condition-description: 308.15 K; 100.5 kPa; Liquid; x1 = 0.15
endpoint-name: mass density (kg/m3)

CCOC(=O)c1ccccc1O [ethyl 2-hydroxybenzoate] + CCO ... 883.41
CCOC(=O)CC(C)C [ethyl 3-methylbutanoate] + CCO ... 798.73
CC(=O)OCc1ccccc1 [benzyl ethanoate] + CCO ... 858.28
CCC(=O)OCc1ccccc1 [benzyl propanoate] + CCO ... 857.03
CCOC(=O)CC(C)=O [ethyl 3-oxobutanoate] + CCO ... 842.22
COC(=O)c1ccccc1 [methyl benzoate] + CCO ... 860.69

* * *

condition-description: 298.15 K; 100.5 kPa; Liquid; Capillary tube (Ostwald / Ubbelohde) method
endpoint-name: viscosity (mPa·s)

Example molecules with recorded viscosity:
CC(=O)OCc1ccccc1 [benzyl ethanoate] ... 2.056
COC(=O)c1ccccc1 [methyl benzoate] ... 1.851

(a) CCC(=O)OCc1ccccc1 [benzyl propanoate]
(b) CCO
(c) CCOC(=O)CC(C)C [ethyl 3-methylbutanoate]
Prompt line: Hey, can you sort those molecules up there by viscosity, smallest first? // ordering of labels required in reply
Response line: c, b, a

* * *

assay-explanation: xn = mol fraction of the nth substance listed
condition-description: 308.15 K; 100.5 kPa; Liquid; x1 = 0.35
endpoint-name: mass density (kg/m3)

CCOC(=O)c1ccccc1O [ethyl 2-hydroxybenzoate] + CCO ... 973.96
CCOC(=O)CC(C)C [ethyl 3-methylbutanoate] + CCO ... 817.96
COC(=O)c1ccccc1 [methyl benzoate] + CCO ... 938.63
CCOC(=O)CC(C)=O [ethyl 3-oxobutanoate] + CCO ... 903.99
CC(=O)OCc1ccccc1 [benzyl ethanoate] + CCO ... 928.98
CCC(=O)OCc1ccccc1 [benzyl propanoate] + CCO ... 922.17

* * *

assay-explanation: xn = mol fraction of the nth substance listed
condition-description: 308.15 K; 100.5 kPa; Liquid; x1 = 0.95
endpoint-name: mass density (kg/m3)

COC(=O)c1ccccc1 [methyl benzoate] + CCO ... 1067.3
CCC(=O)OCc1ccccc1 [benzyl propanoate] + CCO ... 1013.8
CCOC(=O)c1ccccc1O [ethyl 2-hydroxybenzoate] + CCO ... 1108.31
CC(=O)OCc1ccccc1 [benzyl ethanoate] + CCO ... 1035.84
CCOC(=O)CC(C)C [ethyl 3-methylbutanoate] + CCO ... 848.15
CCOC(=O)CC(C)=O [ethyl 3-oxobutanoate] + CCO ... 1007.29

* * *

assay-explanation: xn = mol fraction of the nth substance listed
condition-description: 308.15 K; 100.5 kPa; Liquid; x1 = 0.3
endpoint-name: mass density (kg/m3)

CCC(=O)OCc1ccccc1 [benzyl propanoate] + CCO ... 908.8
CCOC(=O)c1ccccc1O [ethyl 2-hydroxybenzoate] + CCO ... 955.01
CCOC(=O)CC(C)=O [ethyl 3-oxobutanoate] + CCO ... 890.57
CCOC(=O)CC(C)C [ethyl 3-methylbutanoate] + CCO ... 813.92
CC(=O)OCc1ccccc1 [benzyl ethanoate] + CCO ... 914.12
COC(=O)c1ccccc1 [methyl benzoate] + CCO ... 921.76

* * *

assay-explanation: xn = mol fraction of the nth substance listed
condition-description: 308.15 K; 100.5 kPa; Liquid; Capillary tube (Ostwald / Ubbelohde) method; x1 = 0.45
endpoint-name: viscosity (mPa·s)

CC(=O)OCc1ccccc1 [benzyl ethanoate] + CCO ... 1.142
CCOC(=O)CC(C)C [ethyl 3-methylbutanoate] + CCO ... 0.645
CCC(=O)OCc1ccccc1 [benzyl propanoate] + CCO ... 1.217
COC(=O)c1ccccc1 [methyl benzoate] + CCO ... 1.061
CCOC(=O)CC(C)=O [ethyl 3-oxobutanoate] + CCO ... 0.921

* * *

condition-description: 318.15 K; 100.5 kPa; Liquid; Capillary tube (Ostwald / Ubbelohde) method
endpoint-name: viscosity (mPa·s)

Record excerpt, results attached:
CCOC(=O)CC(C)=O [ethyl 3-oxobutanoate] ... 1.144
CC(=O)OCc1ccccc1 [benzyl ethanoate] ... 1.432

(P) CCOC(=O)CC(C)C [ethyl 3-methylbutanoate]
(Q) COC(=O)c1ccccc1 [methyl benzoate]
Prompt line: # argmax over viscosity for candidates P and Q Write the label of whichever entry you select.
Response line: Q

(P) CCO
(Q) CCC(=O)OCc1ccccc1 [benzyl propanoate]
Prompt line: Lab notebook, comparison: P versus Q , higher viscosity goes to which? Reply briefly: the label of your chosen item.
Response line: Q
(Q: 1.515 mPa·s, P: 0.771 mPa·s)

* * *

assay-explanation: xn = mol fraction of the nth substance listed
condition-description: 288.15 K; 100.5 kPa; Liquid; x1 = 0.3
endpoint-name: mass density (kg/m3)

CC(=O)OCc1ccccc1 [benzyl ethanoate] + CCO ... 932.86
COC(=O)c1ccccc1 [methyl benzoate] + CCO ... 940.62
CCC(=O)OCc1ccccc1 [benzyl propanoate] + CCO ... 927.38
CCOC(=O)CC(C)C [ethyl 3-methylbutanoate] + CCO ... 833.01
CCOC(=O)CC(C)=O [ethyl 3-oxobutanoate] + CCO ... 910.15
CCOC(=O)c1ccccc1O [ethyl 2-hydroxybenzoate] + CCO ... 974.13

* * *

assay-explanation: xn = mol fraction of the nth substance listed
condition-description: 298.15 K; 100.5 kPa; Liquid; x1 = 0.8
endpoint-name: mass density (kg/m3)

COC(=O)c1ccccc1 [methyl benzoate] + CCO ... 1053.41
CC(=O)OCc1ccccc1 [benzyl ethanoate] + CCO ... 1026.61
CCOC(=O)c1ccccc1O [ethyl 2-hydroxybenzoate] + CCO ... 1094.88
CCC(=O)OCc1ccccc1 [benzyl propanoate] + CCO ... 1007.63
CCOC(=O)CC(C)=O [ethyl 3-oxobutanoate] + CCO ... 998.79
CCOC(=O)CC(C)C [ethyl 3-methylbutanoate] + CCO ... 852.6

* * *

assay-explanation: xn = mol fraction of the nth substance listed
condition-description: 298.15 K; 100.5 kPa; Liquid; Capillary tube (Ostwald / Ubbelohde) method; x1 = 0.1
endpoint-name: viscosity (mPa·s)

CCOC(=O)CC(C)C [ethyl 3-methylbutanoate] + CCO ... 0.945
CC(=O)OCc1ccccc1 [benzyl ethanoate] + CCO ... 1.098
CCC(=O)OCc1ccccc1 [benzyl propanoate] + CCO ... 1.14
COC(=O)c1ccccc1 [methyl benzoate] + CCO ... 1.094
CCOC(=O)CC(C)=O [ethyl 3-oxobutanoate] + CCO ... 1.001

* * *

assay-explanation: xn = mol fraction of the nth substance listed
condition-description: 298.15 K; 100.5 kPa; Liquid; Capillary tube (Ostwald / Ubbelohde) method; x1 = 0.95
endpoint-name: viscosity (mPa·s)

COC(=O)c1ccccc1 [methyl benzoate] + CCO ... 1.784
CCOC(=O)CC(C)=O [ethyl 3-oxobutanoate] + CCO ... 1.524
CCC(=O)OCc1ccccc1 [benzyl propanoate] + CCO ... 2.053

(A) CC(=O)OCc1ccccc1 [benzyl ethanoate] + CCO
(B) CCOC(=O)CC(C)C [ethyl 3-methylbutanoate] + CCO
Prompt line: Problem: Given the entries A and B , determine which has the lower reported viscosity. # reply format: chosen label
Response line: B
(B: 0.729 mPa·s, A: 1.987 mPa·s)

* * *

assay-explanation: xn = mol fraction of the nth substance listed
condition-description: 308.15 K; 100.5 kPa; Liquid; x1 = 0.85
endpoint-name: mass density (kg/m3)

CC(=O)OCc1ccccc1 [benzyl ethanoate] + CCO ... 1023.71
COC(=O)c1ccccc1 [methyl benzoate] + CCO ... 1052.04
CCC(=O)OCc1ccccc1 [benzyl propanoate] + CCO ... 1003.82
CCOC(=O)c1ccccc1O [ethyl 2-hydroxybenzoate] + CCO ... 1093.24
CCOC(=O)CC(C)=O [ethyl 3-oxobutanoate] + CCO ... 995.02
CCOC(=O)CC(C)C [ethyl 3-methylbutanoate] + CCO ... 844.51
